Biological target: T1, Bzz1-2, P38822
T1 sequence (P38822 568-633, looked up): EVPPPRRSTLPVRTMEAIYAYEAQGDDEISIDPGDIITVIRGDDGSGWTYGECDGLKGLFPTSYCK
Test: SPOT array
Conditions: median of control spots 4538
Reported endpoint: SPOT intensity

Guide cases for SPOT intensity, answers given:
> print(dat)
            binder  val
1  GATNNAPTLPKRKNP    0
2  WTQRRGPLVVYAEDN    0
3  VNFRRIPTGPDSPPT    3
4  MSPLGAPPPPPHKDH    1
5  QPWTDQFEKLEKEVS    1

a: PSTMDFPKLPSFQNS
b: QLLNPNRRAPRRPLS
Q: Sorting by SPOT intensity in descending order, would a or b appear first? Use the label to indicate which entry you chose.
Result: b
(b: 9, a: 0)

1: HAPPLPPTAPPPPSL
2: KRKRFNLLLPKPYLT
Q: Sorting by SPOT intensity in descending order, would 1 or 2 appear first? Use the label to indicate which entry you chose.
Result: 2
(2: 6, 1: 0)

// provenance: paper PMC2756588
